measuredOn: hERG channel (Homo sapiens (Human), UniProt Q12809)
Sequence (Q12809 whole entry): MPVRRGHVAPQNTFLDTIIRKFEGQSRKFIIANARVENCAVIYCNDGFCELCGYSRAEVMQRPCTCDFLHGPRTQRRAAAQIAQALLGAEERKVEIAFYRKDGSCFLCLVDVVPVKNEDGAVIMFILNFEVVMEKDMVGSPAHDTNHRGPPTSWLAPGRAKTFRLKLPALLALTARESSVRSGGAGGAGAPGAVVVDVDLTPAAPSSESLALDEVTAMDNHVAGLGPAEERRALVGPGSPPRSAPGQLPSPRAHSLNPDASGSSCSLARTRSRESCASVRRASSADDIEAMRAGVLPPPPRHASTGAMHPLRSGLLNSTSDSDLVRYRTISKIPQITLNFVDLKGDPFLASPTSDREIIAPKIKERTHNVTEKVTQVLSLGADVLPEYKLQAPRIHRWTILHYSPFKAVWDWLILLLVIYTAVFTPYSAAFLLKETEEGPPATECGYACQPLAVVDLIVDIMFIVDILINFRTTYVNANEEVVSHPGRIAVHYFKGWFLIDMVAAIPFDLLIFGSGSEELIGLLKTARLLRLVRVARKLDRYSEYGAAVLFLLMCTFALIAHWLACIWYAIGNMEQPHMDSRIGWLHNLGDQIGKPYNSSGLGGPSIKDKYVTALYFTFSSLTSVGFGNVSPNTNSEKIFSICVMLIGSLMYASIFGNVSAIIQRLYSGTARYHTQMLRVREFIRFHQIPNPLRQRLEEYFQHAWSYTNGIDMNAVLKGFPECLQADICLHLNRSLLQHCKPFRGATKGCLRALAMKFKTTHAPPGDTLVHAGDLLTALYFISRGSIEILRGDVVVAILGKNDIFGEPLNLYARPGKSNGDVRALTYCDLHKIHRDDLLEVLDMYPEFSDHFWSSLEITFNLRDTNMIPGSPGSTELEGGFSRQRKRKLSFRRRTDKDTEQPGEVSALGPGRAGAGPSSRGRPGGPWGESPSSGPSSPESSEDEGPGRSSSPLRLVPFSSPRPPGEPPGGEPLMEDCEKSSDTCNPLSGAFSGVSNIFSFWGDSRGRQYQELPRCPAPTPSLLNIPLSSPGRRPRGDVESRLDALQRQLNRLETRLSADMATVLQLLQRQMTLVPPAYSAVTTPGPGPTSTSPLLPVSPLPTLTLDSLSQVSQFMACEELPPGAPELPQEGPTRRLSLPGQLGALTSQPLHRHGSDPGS
assayName: Blocking of hERG channel, whole-cell patch clamp in stably transfected HEK 293 cells
Assay type: cell-based
settings: 10 μM; HEK 293 cells
measurementType: Blocking of hERG @ 10 μM (% remaining tail current) (%)
Write the value in % as a bare number.

Request: Please tell me: Blocking of hERG @ 10 μM (% remaining tail current) of CC[C@H]1OC(=O)[C@H](C)[C@@H](O)[C@H](C)[C@@H](O[C@@H]2O[C@H](C)C[C@H](N(C)C)[C@H]2OC)[C@](C)(OC)C[C@@H](C)C(=O)[C@H](C)[C@H]2[C@H](SCCN(Cc3c(Cl)cncc3Cl)c3ccc(OC)c(OC4CCCC4)c3)C(=O)O[C@@]21C , system hERG channel (Homo sapiens (Human), UniProt Q12809)?
Response: 3.7

FYI, the data here is from patent US9738676B2.
